# tested.target: huSTING (WT) (Homo sapiens (Human), UniProt Q86WV6, H232R)
# Sequence (Q86WV6 whole entry H232R): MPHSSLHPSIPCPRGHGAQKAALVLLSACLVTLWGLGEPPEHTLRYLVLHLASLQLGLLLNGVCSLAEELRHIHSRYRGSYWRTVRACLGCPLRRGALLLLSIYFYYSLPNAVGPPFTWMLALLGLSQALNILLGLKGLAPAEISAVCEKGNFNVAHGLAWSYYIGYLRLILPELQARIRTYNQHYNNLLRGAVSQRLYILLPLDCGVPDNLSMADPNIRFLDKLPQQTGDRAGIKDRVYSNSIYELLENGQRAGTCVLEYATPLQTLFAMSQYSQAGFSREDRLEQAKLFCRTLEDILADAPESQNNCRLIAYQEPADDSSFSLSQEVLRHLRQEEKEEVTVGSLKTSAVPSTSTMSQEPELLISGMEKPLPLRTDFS
# procedure.summary: THP-1 reporter cell line assay, THP-1-Dual KI-hSTING-R232 cells
# Type: cell-based
# cond: read-out: Cellular EC50 huSTING (WT)
measurement.label: EC50 (µM)
Supply the numeric figure in µM, leaving out any unit text.

# lookup: CCOC(=O)c1sc2c(Cl)cccc2c1COc1ccc(C(N)=O)cc1 [Example 11] on huSTING (WT) (Homo sapiens (Human), UniProt Q86WV6, H232R), EC50 = 25.6

# lookup: CCOC(=O)c1sc2cccc(Cl)c2c1COc1c(Cl)cc(C(N)=O)cc1Cl [Example 39] on huSTING (WT) (Homo sapiens (Human), UniProt Q86WV6, H232R), EC50 = 1.78

# lookup: COCCCOC(=O)c1sc2cccc(Cl)c2c1COc1c(F)cc(C(N)=O)cc1F [Example 162] on huSTING (WT) (Homo sapiens (Human), UniProt Q86WV6, H232R), EC50 = 0.302

# lookup: COc1cccc2sc(C(=O)OC3CCCC3)c(COc3ccc(C(N)=O)cc3)c12 [Example 155] on huSTING (WT) (Homo sapiens (Human), UniProt Q86WV6, H232R), EC50 = 3.82

# lookup: CCOC(=O)c1sc2cccc(Cl)c2c1COc1ccc(C(N)=O)cc1OC [Example 29] on huSTING (WT) (Homo sapiens (Human), UniProt Q86WV6, H232R), EC50 = 6.5

# lookup: CCOC(=O)c1sc2c(O)ccc(Cl)c2c1COc1c(F)cc(C(N)=O)cc1F [Example 147] on huSTING (WT) (Homo sapiens (Human), UniProt Q86WV6, H232R), EC50 = 1.62

----------
Exercise: for every item that follows, state its recorded log10(Kd).
# tested.target: human STING (HAQ) (Homo sapiens, UniProt Q86WV6, G230A/H232R/R293Q)
# Sequence (Q86WV6 whole entry G230A/H232R/R293Q, looked up): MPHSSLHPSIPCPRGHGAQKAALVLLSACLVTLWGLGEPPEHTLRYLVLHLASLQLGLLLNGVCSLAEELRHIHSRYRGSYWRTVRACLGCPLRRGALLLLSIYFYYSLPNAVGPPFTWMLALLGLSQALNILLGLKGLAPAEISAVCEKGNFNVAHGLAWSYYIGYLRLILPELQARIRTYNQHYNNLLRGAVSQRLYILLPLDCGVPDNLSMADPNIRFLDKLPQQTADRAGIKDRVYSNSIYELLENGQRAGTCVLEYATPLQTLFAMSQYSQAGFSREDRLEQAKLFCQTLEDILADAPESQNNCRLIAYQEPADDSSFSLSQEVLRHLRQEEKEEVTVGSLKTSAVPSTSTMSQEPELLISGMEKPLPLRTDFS
# cond: read-out: SPR (HAQ) KD; 25° C.
Plainly stated, the numbers are log10 of Kd given in µM.

Recorded log10(Kd) (compound NC(=O)c1ccc(OCc2c(C(=O)O)sc3ccccc23)cc1 [Example 6] ): 1.95

Recorded log10(Kd) (compound Cc1cc(OCc2c(C(=O)O)sc3cccc(F)c23)ccc1C(N)=O [Example 54] ): 1.71

Recorded log10(Kd) (compound NC(=O)c1cc(Cl)c(OCc2c(C(=O)O)sc3cccc(Cl)c23)c(Cl)c1 [Example 40] ): 0.45

Recorded log10(Kd) (compound COc1cccc2sc(C(=O)O)c(COc3ccc(C(N)=O)cc3)c12 [Example 34] ): 0.39

Recorded log10(Kd) (compound NC(=O)c1ccc(OCc2c(C(=O)O)sc3cccc(F)c23)cc1C(F)(F)F [Example 52] ): 2.41

Recorded log10(Kd) (compound NC(=O)c1ccc(OCc2c(C(=O)O)sc3cccc(F)c23)c(F)c1 [Example 59] ): 1.18

Recorded log10(Kd) (compound NC(=O)c1ccc(OCc2c(C(=O)O)sc3cccc(Cl)c23)cc1F [Example 26] ): 0.20

Recorded log10(Kd) (compound NC(=O)c1cc(F)c(OCc2c(C(=O)O)sc3cccc(F)c23)c(F)c1 [Example 57] ): 0.96

Recorded log10(Kd) (compound NC(=O)c1cc(F)c(OCc2c(C(=O)O)sc3cccc(Cl)c23)c(Br)c1 [Example 71] ): 0.33

Recorded log10(Kd) (compound N#Cc1cccc2sc(C(=O)O)c(COc3ccc(C(N)=O)cc3)c12 [Example 63] ): 0.96

Recorded log10(Kd) (compound NC(=O)c1ccc(OCc2c(C(=O)O)sc3cccc(F)c23)cc1 [Example 1] ): 1.51

Recorded log10(Kd) (compound NC(=O)c1ccc(OCc2c(C(=O)O)sc3ccc(F)c(F)c23)cc1 [Example 16] ): 0.34

Recorded log10(Kd) (compound NC(=O)c1cc(F)c(OCc2c(C(=O)O)sc3cccc(F)c23)c(Br)c1 [Example 56] ): 1.46

Recorded log10(Kd) (compound NC(=O)c1ccc(OCc2c(C(=O)O)sc3cccc(Cl)c23)cn1 [Example 46] ): 0.99

Recorded log10(Kd) (compound Cc1ccc2sc(C(=O)O)c(COc3ccc(C(N)=O)cc3)c2c1Cl [Example 18] ): 1.20

Recorded log10(Kd) (compound NC(=O)c1ccc(OCc2c(C(=O)O)sc3cc(Cl)ccc23)cc1 [Example 10] ): 2.27

Recorded log10(Kd) (compound NC(=O)c1ccc(OCc2c(C(=O)OCc3ccccc3)sc3cccc(F)c23)cc1 [Example 3] ): 3.54

----------
# tested.target: huSTING (WT) (Homo sapiens (Human), UniProt Q86WV6, H232R)
# procedure.summary: THP-1 reporter cell line assay, THP-1-Dual KI-hSTING-R232 cells
# Type: cell-based
# cond: read-out: Cellular EC50 huSTING (WT)
measurement.label: EC50 (µM)
Supply the numeric figure in µM, leaving out any unit text.

Recorded EC50 (compound CC(OC(=O)OC(C)(C)C)OC(=O)c1sc2cccc(Cl)c2c1COc1c(F)cc(C(N)=O)cc1F (centres unmarked) ): 1.58

Recorded EC50 (compound NC(=O)c1ccc(OCc2c(C(=O)NCCc3ccccc3)sc3cccc(Br)c23)cc1 ): 25.6

Recorded EC50 (compound Cc1oc(=O)oc1COC(=O)c1sc2cccc(Cl)c2c1COc1c(F)cc(C(N)=O)cc1F ): 0.187

Recorded EC50 (compound CC(C)(C)C(=O)OCOC(=O)c1sc2c(F)ccc(Br)c2c1COc1c(F)cc(C(N)=O)cc1F ): 0.057

----------
# tested.target: huSTING (WT) (Homo sapiens (Human), UniProt Q86WV6, H232R)
# procedure.summary: THP-1 reporter cell line assay, THP-1-Dual KI-hSTING-R232 cells
# Assay type: cell-based
# cond: read-out: Cellular EC50 huSTING (WT)
measurement.label: EC50 (µM)
Supply the numeric figure in µM, leaving out any unit text.

Recorded EC50 (molecule CC(C)(C)OC(=O)OCOC(=O)c1sc2cccc(Cl)c2c1COc1c(F)cc(C(N)=O)cc1F [Example 130] ): 0.687

Recorded EC50 (molecule CCOC(=O)c1sc2cccc(C3CC3)c2c1COc1c(F)cc(C(N)=O)cc1F [Example 142] ): 3.12

Recorded EC50 (molecule CCOC(=O)c1sc2cccc(C)c2c1COc1ccc(C(N)=O)cc1 [Example 77] ): 3.22

Recorded EC50 (molecule CC(C)[C@H](NC(=O)OC(C)(C)C)C(=O)OCOC(=O)c1sc2cccc(Cl)c2c1COc1c(F)cc(C(N)=O)cc1F [Example 133] ): 0.806

Recorded EC50 (molecule CCOC(=O)c1sc2ccnc(OC)c2c1COc1c(F)cc(C(N)=O)cc1F [Example 102] ): 0.377

Recorded EC50 (molecule CCOC(=O)c1sc2cccc(Br)c2c1COc1ccc(C(N)=O)cc1 [Example 21] ): 0.576

----------
# tested.target: huSTING (WT) (Homo sapiens (Human), UniProt Q86WV6, H232R)
# procedure.summary: THP-1 reporter cell line assay, THP-1-Dual KI-hSTING-R232 cells
# Type: cell-based
# cond: read-out: Cellular EC50 huSTING (WT)
Exercise: for every item that follows, state its recorded EC50.
Supply the numeric figure in nM, leaving out any unit text.

Recorded EC50 (compound NC(=O)c1cc(F)c(OCc2c(C(=O)O)sc3cccc(Cl)c23)c(Br)c1 ): 40400

Recorded EC50 (compound CCOC(=O)c1sc2ccc(F)c(F)c2c1COc1ccc(C(N)=O)cc1 ): 2570

Recorded EC50 (compound CC(C)(C)C(=O)OCOC(=O)c1sc2cccc(Cl)c2c1COc1ccc(C(N)=O)cc1 ): 2470

Recorded EC50 (compound CCOC(=O)c1sc2c(COC)ccc(Cl)c2c1COc1c(F)cc(C(N)=O)cc1F ): 2150

Recorded EC50 (compound CCOC(=O)c1sc2c(F)ccc(F)c2c1COc1c(F)cc(C(N)=O)cc1F ): 474

Recorded EC50 (compound CCOC(=O)c1sc2ccnc(OC)c2c1COc1c(F)cc(C(N)=O)cc1CO ): 580

----------
# tested.target: huSTING (HAQ) (Homo sapiens (Human), UniProt Q86WV6, G230A/H232R/R293Q/R71H)
# Sequence (Q86WV6 whole entry R71H/G230A/H232R/R293Q): as the sequence (Q86WV6 whole entry G230A/H232R/R293Q, looked up) above, with R71H counted along it
# procedure.summary: THP-1 reporter cell line assay, THP-1 STING Lucia ISG cells
# Type: cell-based
# cond: THP-1 STING Lucia ISG cells; 24 h; top concentration 50 μM; read-out: Cellular EC50 huSTING (HAQ)
pEC50: −log10 of the molar value.
measurement.label: pEC50

Recorded pEC50 (compound CCOC(=O)c1sc2ccc(F)c(F)c2c1COc1ccc(C(N)=O)cc1 ): 5.62

Recorded pEC50 (compound CCOC(=O)c1sc2cccc(Cl)c2c1COc1ccc(C(N)=O)cc1Cl ): 5.42

Recorded pEC50 (compound NC(=O)c1ccc(OCc2c(C(=O)O)sc3cccc(F)c23)cc1 ): < 4.30

Recorded pEC50 (compound NC(=O)c1cc(F)c(OCc2c(C(=O)O)sc3cccc(F)c23)c(F)c1 ): < 4.30

Recorded pEC50 (compound NC(=O)c1ccc(OCc2c(C(=O)O)sc3cccc(Br)c23)cc1 ): < 4.30

Recorded pEC50 (compound CCOC(=O)c1sc2ccc(Cl)cc2c1COc1ccc(C(N)=O)cc1 ): < 4.30

Recorded pEC50 (compound NC(=O)c1ccc(OCc2c(C(=O)O)sc3cc(F)cc(F)c23)cc1 ): < 4.30

Recorded pEC50 (compound COc1cccc2sc(C(=O)O)c(COc3ccc(C(N)=O)cc3)c12 ): < 4.30

Recorded pEC50 (compound CCOC(=O)c1sc2cccc(Cl)c2c1COc1ccc(C(N)=O)cc1C#N ): 5.87
